Molecular target: Mitogen-activated protein kinase 1 (Rattus norvegicus, UniProt P63086)
Sequence (P63086 whole entry): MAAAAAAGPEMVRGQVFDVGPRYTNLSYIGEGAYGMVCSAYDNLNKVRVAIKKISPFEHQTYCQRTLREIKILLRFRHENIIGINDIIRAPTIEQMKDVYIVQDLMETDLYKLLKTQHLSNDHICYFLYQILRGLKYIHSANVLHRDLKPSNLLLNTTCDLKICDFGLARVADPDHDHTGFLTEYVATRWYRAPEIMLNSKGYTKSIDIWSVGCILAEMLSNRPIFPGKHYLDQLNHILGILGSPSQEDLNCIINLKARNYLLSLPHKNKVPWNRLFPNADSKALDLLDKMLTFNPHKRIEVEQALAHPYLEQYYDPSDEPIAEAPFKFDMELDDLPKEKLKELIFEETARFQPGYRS
Test: Binding affinity to rat full-length ERK2 using FQRKTLQRRNLKGLNLNL-XXX-TGPLSPGPF peptide as substrate in presence of [gamma33P]ATP by scintillation counter analysis
METRIC: Ki (nM)

INSERT INTO measurements (line_notation, recorded_measurement) VALUES
  ('O=[N+]([O-])c1cnc(Sc2nnc(O)n2-c2ccc3c(c2)OCCO3)s1', 2300);

* * *

Target: Mitogen-activated protein kinase 3 (Homo sapiens, UniProt P27361)
Sequence (P27361 whole entry): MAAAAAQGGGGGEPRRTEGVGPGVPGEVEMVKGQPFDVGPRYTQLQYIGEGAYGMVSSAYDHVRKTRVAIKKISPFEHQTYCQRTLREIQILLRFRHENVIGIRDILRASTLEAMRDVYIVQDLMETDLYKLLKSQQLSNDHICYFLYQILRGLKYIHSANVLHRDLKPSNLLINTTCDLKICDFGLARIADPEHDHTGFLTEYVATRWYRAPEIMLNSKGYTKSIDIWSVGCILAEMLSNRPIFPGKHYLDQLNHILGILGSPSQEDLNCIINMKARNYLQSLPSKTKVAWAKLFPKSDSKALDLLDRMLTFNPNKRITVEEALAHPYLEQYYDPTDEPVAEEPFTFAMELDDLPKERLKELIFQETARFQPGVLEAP
Experiment: Binding affinity to ERK1 (unknown origin) measured after 20 mins in presence of [gamma33P]ATP by scintillation counter analysis
pKi: −log10 of the molar value.
METRIC: pKi

INSERT INTO assay_data (line_notation, recorded_measurement) VALUES
  ('CC(C)Nc1cc(-c2c[nH]c(C(=O)N[C@H](CO)c3cccc(Cl)c3)c2)c(Cl)cn1', '> 9.52');

* * *

Molecular target: Mitogen-activated protein kinase 1 (Homo sapiens)
Sequence (P28482 whole entry): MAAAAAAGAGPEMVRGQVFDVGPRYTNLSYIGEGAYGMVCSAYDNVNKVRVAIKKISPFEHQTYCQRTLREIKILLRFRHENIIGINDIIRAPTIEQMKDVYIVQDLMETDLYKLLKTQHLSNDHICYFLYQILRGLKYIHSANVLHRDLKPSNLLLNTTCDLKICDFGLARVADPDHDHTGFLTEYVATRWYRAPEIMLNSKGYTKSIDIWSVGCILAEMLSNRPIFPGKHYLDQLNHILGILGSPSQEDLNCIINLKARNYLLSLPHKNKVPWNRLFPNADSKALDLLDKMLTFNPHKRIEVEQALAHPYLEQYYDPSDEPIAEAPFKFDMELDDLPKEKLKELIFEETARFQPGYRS
Assay: Inhibition of ERK2 (unknown origin)
Label T when IC50 < 10 nM; otherwise F.

INSERT INTO results (line_notation, assay_target, assigned_category) VALUES
  ('N=C(N)NCCC[C@H]1CNC(=N)N1CCN(CCN1C[C@H](CCCNC(=N)N)N(CCCC2CCCCC2)C1=N)CCN1C[C@H](CCCNC(=N)N)N(CCc2cccc(Br)c2)C1=N', 'Mitogen-activated protein kinase 1 (Homo sapiens)', 'F'),
  ('COc1ccc2[nH]cc(/C=C3\C(=O)Nc4ccc(NC(=O)CCN5CCCCC5)cc43)c2c1', 'Mitogen-activated protein kinase 1 (Homo sapiens)', 'F'),
  ('Cn1nccc1Nc1nccc(-c2cc3c(s2)C(C)(C)N(CCN2CCOCC2)C3=O)n1', 'Mitogen-activated protein kinase 1 (Homo sapiens)', 'T'),
  ('Cc1cnc(NC2CCOCC2)nc1-n1cnc(C(=O)N[C@H](CN)c2cc(F)cc(Cl)c2)c1', 'Mitogen-activated protein kinase 1 (Homo sapiens)', 'T');

* * *

Biological target: Mitogen-activated protein kinase 3 (Homo sapiens)
Assay: Inhibition of ERK1 (unknown origin)
METRIC: IC50 (nM)

INSERT INTO measurements (line_notation, metric, recorded_measurement) VALUES
  ('O=C1Nc2cc3[nH]nc(-c4ccncc4)c3cc2CN1Cc1ccccc1', 'IC50', 10),
  ('Cc1cnc(NC2CCOCC2)nc1-n1cnc(C(=O)N[C@H](CN)c2cc(F)cc(Cl)c2)c1', 'IC50', 2),
  ('Cn1nccc1Nc1nccc(-c2cc3c(s2)C(C)(C)N(CCN2CCOCC2)C3=O)n1', 'IC50', 5),
  ('C=CC(=O)Nc1cc(C)ccc1Nc1nc(Nc2cc(OC)ncc2C)ncc1C(F)(F)F', 'IC50', 10);
